- SUBJECT_OF_TEST: HLA-C*15:02
- PROTOCOL: IEDB peptide-MHC binding, purified MHC/direct/fluorescence; filed as Kd, often an IC50 or EC50 that approximates it; bounds were set here for any values at or beyond the usual limits of such assays
- REPORTED_CONDITIONS: source organism: Mycobacterium tuberculosis str. Haarlem
ASSAY_ENDPOINT: Kd

1) YTPEQWWPF : ≥ 20 µM

====

- SUBJECT_OF_TEST: HLA-B*07:02
- PROTOCOL: IEDB peptide-MHC binding, purified MHC/direct/fluorescence; filed as Kd, often an IC50 or EC50 that approximates it; bounds were set here for any values at or beyond the usual limits of such assays
- REPORTED_CONDITIONS: source organism: Marburg virus - Musoke, Kenya, 1980
ASSAY_ENDPOINT: Kd

1) IHLDKGGQF : ≥ 20 µM
2) ISDPLTSGL : ≥ 20 µM

====

- SUBJECT_OF_TEST: HLA-A*31:01
- PROTOCOL: IEDB peptide-MHC binding, purified MHC/direct/fluorescence; filed as Kd, often an IC50 or EC50 that approximates it; bounds were set here for any values at or beyond the usual limits of such assays
- REPORTED_CONDITIONS: source organism: Sudan virus - Boniface, Sudan,1976
ASSAY_ENDPOINT: Kd

1) TMMRHRREL : ≥ 20 µM

====

- SUBJECT_OF_TEST: HLA-A*24:03
- PROTOCOL: IEDB peptide-MHC binding, purified MHC/direct/fluorescence; filed as Kd, often an IC50 or EC50 that approximates it; bounds were set here for any values at or beyond the usual limits of such assays
- REPORTED_CONDITIONS: source organism: Lyssavirus rabies
pKd: −log10 of the molar value.
ASSAY_ENDPOINT: pKd

1. YLDNVGVHI : ≤ 4.70

====

- SUBJECT_OF_TEST: HLA-A*24:03
- PROTOCOL: IEDB peptide-MHC binding, purified MHC/direct/fluorescence; filed as Kd, often an IC50 or EC50 that approximates it; bounds were set here for any values at or beyond the usual limits of such assays
- REPORTED_CONDITIONS: source organism: Giardia lamblia ATCC 50803
pKd: −log10 of the molar value.
ASSAY_ENDPOINT: pKd

1. FMGRLGPEY : ≤ 5.30

====

- SUBJECT_OF_TEST: HLA-B*27:05
- PROTOCOL: IEDB peptide-MHC binding, purified MHC/competitive/fluorescence; bounds were set here for any values at or beyond the usual limits of such assays
- REPORTED_CONDITIONS: source organism: hepatitis C virus genotype 1a
pIC50: −log10 of the molar value.
ASSAY_ENDPOINT: pIC50

1. GSAAICGKY : 5.32

====

- SUBJECT_OF_TEST: HLA-A*01:01
- PROTOCOL: IEDB peptide-MHC binding, purified MHC/competitive/fluorescence; bounds were set here for any values at or beyond the usual limits of such assays
- REPORTED_CONDITIONS: source organism: Monodelphis domestica
pIC50: −log10 of the molar value.
ASSAY_ENDPOINT: pIC50

1. LEYFQFVKKLL : ≤ 4.70

====

- SUBJECT_OF_TEST: HLA-A*03:01
- PROTOCOL: IEDB peptide-MHC binding, purified MHC/competitive/fluorescence; filed as Kd, often an IC50 or EC50 that approximates it; bounds were set here for any values at or beyond the usual limits of such assays
- REPORTED_CONDITIONS: source organism: Rickettsia felis URRWXCal2
ASSAY_ENDPOINT: Kd

1) QYLFSLTYV : ≥ 20 µM
